B1: STX11 (parent)
chain: FQRAMHDYNQAEMKQRDNCKIRIQ

Variants of: B1
Experiment: protein stability index of a GFP-peptide fusion (GPS, HEK-293T) (PSI 1-6); higher = more stable;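 also: lentivirally expressed fusions sorted by FACS into six bins by GFP to DsRed ratio, PSI derived from sequencing read proportions per bin multiplied by bin number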
Details: c terminus: a fixed tail appended
Kind request: treat 3 as inclusive, so protein stability index at 3 or higher is Condition met, anything lower is Condition not met.

Recorded results for 8 variants are shown here.
primary sequence: FQRAMHDYNQAEMKQRDNCKIRFQ
group: Condition not met

primary sequence: FQRVMHDYNQAEMKQRDNCKIRIQ
group: Condition not met

primary sequence: FQRAMHDYNQAEMKQRDRCKIRIQ
group: Condition not met

primary sequence: FQRAMHDYNQAEMKQRDICKIRIQ
group: Condition not met

primary sequence: FQRAMHDYLQAEMKQRDNCKIRIQ
group: Condition not met

primary sequence: IQRAMHDYNQAEMKQRDNCKIRIQ
group: Condition met

primary sequence: FQRAMHDYTQAEMKQRDNCKIRIQ
group: Condition not met

primary sequence: FQRAMHDVNQAEMKQRDNCKIRIQ
group: Condition not met

Record `FQRAMHDYNQAEMKQRWNCKIRIQ` ; criterion: protein stability index no lower than 3. Met?
Condition not met

Evaluate `FQRAMEDYNQAEMKQRDNCKIRIQ` : protein stability index at minimum 3?
Condition met

Textbook exercise: given the entry `FQRAMHDYNSAEMKQRDNCKIRIQ` , state whether its protein stability index is greater than or equal to 3.
Condition met

Is it the case that `FQRAMHDYNQAEMKQRYNCKIRIQ` has protein stability index reaching or exceeding 3?
Condition not met

Please indicate if the recorded protein stability index for `FQRAMHDYYQAEMKQRDNCKIRIQ` meets or exceeds 3.
Condition not met

Is protein stability index for `FQRAMHDYNQAEMKQRDSCKIRIQ` at or above 3?
Condition not met

Has `FQRAMHDYNQAEMKRRDNCKIRIQ` a recorded protein stability index greater than or equal to 3?
Condition not met

Check if protein stability index >= 3 (inclusive). Item: `FQRAMHDYNQAEMKQRDNHKIRIQ`
Condition met

Check this variant for protein stability index at or above 3: `FFRAMHDYNQAEMKQRDNCKIRIQ`
Condition not met

Hi team, for `FQRMMHDYNQAEMKQRDNCKIRIQ` , is the recorded protein stability index at or above 3?
Condition not met

Threshold query (protein stability index >= 3) on `FQRAMHDYNQAEMKQRDNCNIRIQ`
Condition not met
